- assay overview: chemical genetic growth profiling, strain panel (AID 1159580);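 further: tested at 20 µM; growth read once vehicle control cultures reached saturation at 30 °C; 1 = growth at the plate median or of vehicle wells; lower values mean less growth of the strain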
- measurement parameters: S. cerevisiae deletion strains, growth OD, locus YNL153C, strain GIM3, stronger effect = lower value
Among all 5,500 compounds or so, about 2,000 (36%) were called active. Not shown: some 18% with an inconclusive outcome. This is one part of the list.
attribute measured: normalized growth
One number for each entry.

| compound | normalized growth |
| --- | --- |
| COc1ccc(C(=O)CC(=O)c2ccc(C(C)(C)C)cc2)cc1 | 0.996 |
| Cc1ccc(OCc2nnc(SCC(=O)Nc3cccc4c3OCO4)n2-c2ccccc2)c2c1CCC2 | 1 |
| CO[C@]12C[C@@H](COC(=O)c3cncc(Br)c3)CN(C)[C@@H]1Cc1cn(C)c3cccc2c13 | 0.99 |
| O=C(O)CC(CC(=O)Nc1ccc(I)cc1F)c1ccc(C(F)(F)F)cc1 (configuration not stated) | 1.01 |
| CN1CC(CNC(=O)OCc2ccccc2)CC2c3cccc4c3c(cn4C)CC21 (configuration not stated) | 0.981 |
| N#C/C(=C\c1cccc(O)c1)C(=O)O | 0.984 |
| CC(=O)O[C@H]1C[C@@H](OC(C)=O)C(C)(C)C2CC(=O)[C@]3(C)C(CC[C@@]4(C)[C@H](c5ccoc5)OC(=O)[C@H]5O[C@]543)[C@]21C (some centres not stated) | 1.02 |
| COc1ccc(OCC(N)=O)cc1 | 1.01 |

Working through the 4 compounds below one at a time, give normalized growth for each.
1. Cc1ccc2c(c1)N(CCO)C(C)(C)CC2C (configuration not stated)
2. C[C@@H](N)[C@@H](O)c1ccccc1
3. CCCCN1CCC(COC(=O)c2cc(Cl)c(N)c3c2OCCO3)CC1
4. COc1cc2c(cc1/C=C/C(=O)c1cc(OC)c(OC)cc1OC)OCO2

**Result**
[1, 0.974, 0.996, 0.983]

Cited source: PubChem BioAssay AID1159580
